This listing pairs binders with measured Average %.
# tgt: T1, HLA-B*07:02 (human, biotinylated heavy chain)
# T1 construct: Conditional HLA class I complex as for m1
# protocolNotes: UV peptide exchange; HLA class I ELISA;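 note: ELISA detecting beta2-microglobulin of intact HLA class I complexes captured on streptavidin wells after UV-induced exchange, absorbance read-out, reference is UV-irradiated conditional complex lacking rescue peptide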
assayEndpoint: Average % (%)

binder	assayEndpoint	unitText	observedMeasurement
HREKQLIAM [Peptide 7, 9-mer HREKQLIAM derived from P22 (SEQ ID NO: 1003)]	Average %	%	12.6
LIAMDSAIT [Peptide 10, 9-mer LIAMDSAIT derived from P22 (SEQ ID NO: 1003)]	Average %	%	9.5
AMDSAITLW [Peptide 1, 9-mer AMDSAITLW derived from FUS1 (SEQ ID NO: 1001)]	Average %	%	9.7
YHREKQLIA [Peptide 6, 9-mer YHREKQLIA derived from P22 (SEQ ID NO: 1003)]	Average %	%	10.8
SLIAMDSAI [Peptide 3, 9-mer SLIAMDSAI derived from FUS1 (SEQ ID NO: 1001)]	Average %	%	11.1
SLYHREKQL [Peptide 4, 9-mer SLYHREKQL derived from P22 (SEQ ID NO: 1003)]	Average %	%	10.8
KQLIAMDSA [Peptide 9, 9-mer KQLIAMDSA derived from P22 (SEQ ID NO: 1003)]	Average %	%	10.3
LYHREKQLI [Peptide 5, 9-mer LYHREKQLI derived from P22 (SEQ ID NO: 1003)]	Average %	%	10.8
IAMDSAITL [Peptide 2, 9-mer IAMDSAITL derived from FUS1 (SEQ ID NO: 1001)]	Average %	%	67.1
